Values compiled from the DeepSol protein solubility set.

experiment_description: soluble on expression in E. coli; label from the status in PepcDB or PDB records
measured_attribute: soluble on expression in E. coli

Recorded results for 6 sequences are shown here.
seq	soluble on expression in E. coli
MNTVCTHCQAINRIPDDRLQDAAKCGRCGHELFDGEVINATGETLDKLLKDDLPVVIDFWAPWCGPCRNFAPIFEDVAEERSGKVRFVKVNTEAERELSARFGIRSIPTIMIFKHGQVVDMLNGAVPKAPFDSWLNEAL	not soluble
MRITQEQAEAIFCEDLKQFGKTVEQSVKVCLTDAQIAALVSFCYNVETQAFCKSTLLKKLNNGAYESVPAELQKWNKVGGKAIQGFVNRRAAEAGLWAKGSYVCFNTQRVETKNTIGLLKIETLAPMIGSCSGLGGLLVGNGPLPALWF	not soluble
DILVFTPRKSDAGISVILYPGAFVDALSYAPLANKLASSGYKTYIAEMPLNLAVFGKNRAADIIDEAPDEKFVIGGHSLGGVMSSRFAHENESEIEGVFFLASYPDKKGSLKNASFPALSITGTKDDVLNKDAYDKNKKYLPKDTTFVSIEGGNHAQFGSYGAQHGDGKATISEAEQTDQVSNALIAWLNTSVKNQER	soluble
GPVKLRLTVLCAKNLVKKDFFRLPDPFAKVVVDGSGQCHSTDTVKNTLDPKWNQHYDLYIGKSDSVTISVWNHKKIHKKQGAGFLGCVRLLSNAINRLKDTGYQRLDLCKLGPNDNDTVRGQIVVSLQSRD	soluble
VGSIQPDFLGSVNSSLRYKNWTLRASMDMRFGGMVAIYGSHYGTAYGYLKSSMNGVDAENGGITYTSIWDGLTYDDGIIPEAIMPGGQTINTPSGTYTIAEGGELYADLVNRGIVDPQHASSWNYWNNSWGRAAVWKNNDWFHELNYIALREVSLSYRMPGKIADKIGASGINLTLTGRNLGYLLNSLPNNFNPESLRGTQAGQFMIRSVSPYTASYTFTINATF	not soluble
MGSDKIHHHHHHMNTDARMGAGVSLKAEHYDQALACNLEGLWFEVHPENYMVGGPRLAWLNRIAERHPVSLHGVALSLAADAAPDQDHLQRLRALCDQIEPVLVYYHLAWSTWQGHYHPDLLPFPRSNEALQRIAENIQRCQEVLGRRISIENPSHYLQLQGHEWDEIDFLGELTRRTGCGLLLDINNVYVSAHNLGFSATAYLDRFPAQAITEVHLAGHSDDDQGSLLIDSHDAQVAEPVWALYRKLVSRVGPRPTLIERDDKLPPFTELLAERSIAQSIMTCPGVLP	not soluble

Here is another sequence to look at.
// soluble on expression in E. coli lookup, sequence = `MGKVYIVGAGPGDPDLITVKGLKCIEKADVILYDRLVNKELLSYAKPEADLIYCGKLPNYHTMKQETINTFLIKYAKKGKIVTRLKGGDPFVFGRGGEEAEALAKQGVPFEIVPGISAGIAAPAYAGIPVTHRDASASFAIVTGHRKEDAAEEVKWGNLAKGVETLAVYMGVSNLPYICEQLMKHGKDKSTPAAIIERGTTSMQRTVVGTLGTIVDVAKKEQIQNPSMIVIGEVVRFREKIHWFEKQTESTYQVSGVL` , result: not soluble
